// data source = patent US8148391B2

- Tested target: baculovirus-expressed ALK (Homo sapiens)
- Construct: host or cells: baculovirus expression system
- Assay remarks: ALK Kinase Assay (ELISA-type, time-resolved fluorescence)
- Type: biochemical
- Particulars: 1 μM ATP (Km level); read-out: ALK Activity (ALK Kinase Inhibition, IC50)
pIC50: −log10 of the molar value.
Recorded metric: pIC50

Item: CNC(=O)c1cc(OC)ccc1Nc1nc(Nc2cc3c(cc2OC)CCN(CC(=O)N(C)C)CC3)ncc1Cl | System: baculovirus-expressed ALK (Homo sapiens) | pIC50: > 7.00

Item: COc1c(Nc2ncc(Cl)c(Nc3ccccc3-n3cccn3)n2)ccc2c1CCC(NCC(F)F)CC2 (stereo not shown) | System: baculovirus-expressed ALK (Homo sapiens) | pIC50: > 7.00

Item: CNS(=O)(=O)c1ccccc1Nc1nc(Nc2cccc3c2N(C)CCN(C)C3=O)ncc1Cl | System: baculovirus-expressed ALK (Homo sapiens) | pIC50: 5.00 to 6.00

Item: CCN1CC2CC1CN2c1ccc(Nc2nc(Nc3cc4c(cc3OC)CCN(CC(=O)N(C)C)CC4)ncc2Cl)c(OC)c1 (stereo not shown) | System: baculovirus-expressed ALK (Homo sapiens) | pIC50: > 7.00

Item: COCCN(C)C1CCc2ccc(Nc3ncc(Cl)c(N[C@H]4[C@@H](C(N)=O)[C@@H]5C=C[C@H]4C5)n3)c(OC)c2CC1 (single isomer, unassigned) [Example 701] | System: baculovirus-expressed ALK (Homo sapiens) | pIC50: > 7.00

Item: COCCN1CCc2ccc(Nc3ncc(Cl)c(Nc4ccccc4-c4nnc(C)s4)n3)cc2CC1 | System: baculovirus-expressed ALK (Homo sapiens) | pIC50: 6.00 to 7.00

Item: COc1c(Nc2ncc(Cl)c(N[C@@H]3CCCC[C@H]3NS(C)(=O)=O)n2)ccc2c1CCC(N1CCOCC1)CC2 (mixture of isomers) | System: baculovirus-expressed ALK (Homo sapiens) | pIC50: > 7.00

Item: CCN1CC(=O)N(C)c2cc(Nc3ncc(Cl)c(N[C@H]4[C@@H](C(N)=O)[C@@H]5C=C[C@H]4C5)n3)c(OC)cc2C1 | System: baculovirus-expressed ALK (Homo sapiens) | pIC50: > 7.00

Item: CNC(=O)c1cccc(Nc2nc(Nc3ccc4c(c3)CCN(CCOC)CC4)ncc2Cl)c1 | System: baculovirus-expressed ALK (Homo sapiens) | pIC50: 6.00 to 7.00

Item: CC1(C)CCCOc2c(Nc3ncc(Cl)c(N[C@@H]4CCCC[C@H]4NS(C)(=O)=O)n3)cccc21 | System: baculovirus-expressed ALK (Homo sapiens) | pIC50: > 7.00

Item: COCC(COC)N1CCc2cc(Nc3ncc(Cl)c(NC4(CC(N)=O)CCCCC4)n3)c(OC)cc2CC1 | System: baculovirus-expressed ALK (Homo sapiens) | pIC50: 6.00 to 7.00

Item: COCCOC(=O)C1[C@@H]2C=C[C@@H](C2)[C@H]1Nc1nc(Nc2ccc3c(c2OC)CC[C@@H](N2CCOCC2)CC3)ncc1Cl (single isomer, unassigned) [Example 904] | System: baculovirus-expressed ALK (Homo sapiens) | pIC50: 5.00 to 6.00

Item: COCCN1CCc2ccc(Nc3ncc(Cl)c(Nc4ccc(OC)c5c4C(=O)N(C)C5)n3)cc2CC1 | System: baculovirus-expressed ALK (Homo sapiens) | pIC50: > 7.00

* * *

- Tested target: baculovirus-expressed ALK (Homo sapiens, UniProt Q9UM73)
- Construct: host or cells: baculovirus expression system
- Sequence (Q9UM73 19-1620): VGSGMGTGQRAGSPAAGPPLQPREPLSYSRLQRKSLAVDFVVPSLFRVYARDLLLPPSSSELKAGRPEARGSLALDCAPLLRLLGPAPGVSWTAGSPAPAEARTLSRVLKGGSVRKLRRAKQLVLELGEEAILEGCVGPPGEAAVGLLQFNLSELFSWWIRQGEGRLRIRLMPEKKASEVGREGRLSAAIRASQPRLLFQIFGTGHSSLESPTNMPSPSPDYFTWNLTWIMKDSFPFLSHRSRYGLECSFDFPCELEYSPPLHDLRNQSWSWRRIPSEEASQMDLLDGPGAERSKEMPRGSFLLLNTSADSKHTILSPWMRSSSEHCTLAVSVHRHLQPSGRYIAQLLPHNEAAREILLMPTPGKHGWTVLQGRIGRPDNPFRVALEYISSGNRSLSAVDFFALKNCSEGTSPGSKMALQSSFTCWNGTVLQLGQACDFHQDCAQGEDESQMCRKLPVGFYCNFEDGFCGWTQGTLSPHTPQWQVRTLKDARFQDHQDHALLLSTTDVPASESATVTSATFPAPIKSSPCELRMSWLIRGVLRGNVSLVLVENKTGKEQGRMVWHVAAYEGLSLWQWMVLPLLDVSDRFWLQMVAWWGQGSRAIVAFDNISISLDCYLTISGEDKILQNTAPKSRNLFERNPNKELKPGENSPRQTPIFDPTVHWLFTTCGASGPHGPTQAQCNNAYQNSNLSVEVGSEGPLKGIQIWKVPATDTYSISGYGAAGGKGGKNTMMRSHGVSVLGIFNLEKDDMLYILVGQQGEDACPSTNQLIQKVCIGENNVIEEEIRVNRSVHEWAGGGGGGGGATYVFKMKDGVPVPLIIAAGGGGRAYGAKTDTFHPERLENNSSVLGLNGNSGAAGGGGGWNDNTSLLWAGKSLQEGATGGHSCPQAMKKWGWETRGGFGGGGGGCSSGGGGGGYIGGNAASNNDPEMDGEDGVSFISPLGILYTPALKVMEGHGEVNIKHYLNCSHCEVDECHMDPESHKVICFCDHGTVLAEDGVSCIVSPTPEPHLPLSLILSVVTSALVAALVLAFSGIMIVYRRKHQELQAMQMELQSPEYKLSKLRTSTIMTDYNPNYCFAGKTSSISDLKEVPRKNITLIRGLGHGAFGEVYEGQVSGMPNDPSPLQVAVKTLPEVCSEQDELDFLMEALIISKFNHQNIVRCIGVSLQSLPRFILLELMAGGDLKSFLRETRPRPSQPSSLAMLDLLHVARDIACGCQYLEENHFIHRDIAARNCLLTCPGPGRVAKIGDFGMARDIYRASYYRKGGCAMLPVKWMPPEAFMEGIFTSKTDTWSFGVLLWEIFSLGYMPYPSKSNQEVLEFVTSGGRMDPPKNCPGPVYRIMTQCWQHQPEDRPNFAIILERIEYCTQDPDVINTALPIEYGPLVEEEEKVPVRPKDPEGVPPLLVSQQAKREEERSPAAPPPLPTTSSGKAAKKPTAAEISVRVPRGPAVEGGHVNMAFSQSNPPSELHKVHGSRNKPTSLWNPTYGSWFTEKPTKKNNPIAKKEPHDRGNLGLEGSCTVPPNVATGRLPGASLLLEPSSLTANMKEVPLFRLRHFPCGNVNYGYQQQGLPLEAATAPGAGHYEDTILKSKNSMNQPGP
- Assay remarks: ALK Kinase Assay (ELISA-type, time-resolved fluorescence)
- Format: biochemical
- Particulars: 1 μM ATP (Km level), 30 ng/ml ALK, 37° C., 15 minutes; read-out: ALK Activity (ALK kinase inhibition, IC50 class)
pIC50: −log10 of the molar value.
Recorded metric: pIC50

GET /value?item= COCCN1CCc2ccc(Nc3ncc(Cl)c(Nc4ccccc4C(=O)OC)n3)cc2CC1 [Example 1408] &field=pIC50 returns > 7.00

GET /value?item= C#CCNC(=O)c1sccc1Nc1nc(Nc2ccc3c(c2)OCCCN3C(=O)OCCCN(C)C)ncc1Cl [Example 1429] &field=pIC50 returns 6.00 to 7.00

GET /value?item= CN(C)S(=O)(=O)c1ccccc1Nc1nc(Nc2ccc3c(c2)CCC(N2CCOCC2)CC3)ncc1Cl (stereo not drawn) [Example 1032] &field=pIC50 returns > 7.00

GET /value?item= C#CCNC(=O)c1cccc(F)c1Nc1nc(Nc2ccc3c(c2)NC(=O)CCC3)ncc1Cl [Example 1404] &field=pIC50 returns 6.00 to 7.00

GET /value?item= COc1cc2c(cc1Nc1ncc(Cl)c(Nc3ccccc3-n3cccn3)n1)CCN(CC(=O)N(C)C)CC2 [Example 1320] &field=pIC50 returns > 7.00

GET /value?item= CN1C(=O)CCCc2cc(Nc3ncc(Cl)c(Nc4c(F)cccc4C(=O)NCC#N)n3)ccc21 [Example 1045] &field=pIC50 returns > 7.00

* * *

Assignment: determine reported pIC50 for the given compounds.
- Tested target: baculovirus-expressed ALK (Homo sapiens, UniProt Q9UM73)
- Construct: host or cells: baculovirus expression system
- Assay remarks: ALK Kinase Assay (ELISA-type, time-resolved fluorescence)
- Format: biochemical
- Particulars: 1 μM ATP (Km level), 30 ng/ml ALK, 37° C., 15 minutes; read-out: ALK Activity (ALK kinase inhibition, IC50 class)
pIC50: −log10 of the molar value.

GET /value?item= CNC(=O)c1cccc(F)c1Nc1nc(Nc2ccc3c(c2)NC(=O)C(N2CCOCC2)CC3(C)C)ncc1Cl (stereo not shown) [Example 1288] &field=pIC50 returns 6.00 to 7.00

GET /value?item= CNC(=O)c1cc(-c2cnn(C)c2)cc(F)c1Nc1nc(Nc2ccc3c(c2)N(C(C)=O)CCCO3)ncc1Cl [Example 1424] &field=pIC50 returns 6.00 to 7.00

GET /value?item= COc1cc2c(cc1Nc1ncc(Cl)c(Nc3ccccc3S(=O)(=O)N(C)C)n1)CCN(CC(=O)N(C)C)CC2 [Example 1141] &field=pIC50 returns > 7.00

GET /value?item= COCCN1CCc2ccc(Nc3ncc(Cl)c(Nc4ccccc4C(=O)NCCCCN(C)C)n3)cc2CC1 [Example 1400] &field=pIC50 returns 6.00 to 7.00

GET /value?item= COCCOc1ccc(Nc2nc(Nc3cc4c(cc3OC)CCN(Cc3ncco3)CC4)ncc2Cl)c(OC)c1 [Example 1174] &field=pIC50 returns > 7.00

GET /value?item= CC1(C)CCC(=O)Nc2cc(Nc3ncc(Cl)c(Nc4c(F)cccc4C(=O)NCC#N)n3)ccc21 [Example 1080] &field=pIC50 returns > 7.00

GET /value?item= CNC(=O)c1cc(Br)cc(F)c1Nc1nc(Nc2ccc3c(c2)CCN(CCOC)CC3)ncc1Cl [Example 1415] &field=pIC50 returns > 7.00

GET /value?item= CNC(=O)c1cc(N(C)C)ccc1Nc1nc(Nc2cc3c(cc2OC)CCN(CC(=O)N(C)C)CC3)ncc1Cl [Example 1185] &field=pIC50 returns > 7.00

GET /value?item= COCCN1CCc2ccc(Nc3ncc(Cl)c(N[C@H]4CC[C@@H](N(CC#N)S(C)(=O)=O)CC4)n3)cc2CC1 [Example 1384] &field=pIC50 returns 6.00 to 7.00

GET /value?item= CC1(C)CCC(=O)Nc2ccc(Nc3ncc(Cl)c(Nc4c(F)cccc4C(=O)NCCC#N)n3)cc21 [Example 1041] &field=pIC50 returns > 7.00

GET /value?item= Cc1cccc(C(=O)NCC#N)c1Nc1nc(Nc2ccc3c(c2)C(C)(C)CCC(=O)N3)ncc1Cl [Example 1038] &field=pIC50 returns > 7.00

GET /value?item= COCCN1CCc2ccc(Nc3ncc(Cl)c(Nc4ccccc4C(=O)NCCN4CCN(C)CC4)n3)cc2CC1 [Example 1402] &field=pIC50 returns 6.00 to 7.00

GET /value?item= COCCCNC(=O)c1ccccc1Nc1nc(Nc2ccc3c(c2)CCN(CCOC)CC3)ncc1Cl [Example 1399] &field=pIC50 returns > 7.00

GET /value?item= CCOC(=O)N1CCCOc2cc(Nc3ncc(Cl)c(Nc4c(F)cccc4C(=O)NC)n3)ccc21 [Example 1417] &field=pIC50 returns 6.00 to 7.00

GET /value?item= COc1ccc2c(c1Nc1ncc(Cl)c(N[C@@H]3CCCC[C@H]3NS(C)(=O)=O)n1)CCC(NCC(F)F)CC2 (single isomer, unassigned) [Example 1074] &field=pIC50 returns 6.00 to 7.00

GET /value?item= COc1cc2c(cc1Nc1ncc(Cl)c(Nc3ccccc3S(=O)(=O)N(C)C)n1)CCNC(=O)C2 [Example 1194] &field=pIC50 returns > 7.00

GET /value?item= CCN1C(=O)CCCc2cc(Nc3ncc(Cl)c(Nc4ccccc4OC)n3)c(OC)cc21 [Example 1318] &field=pIC50 returns 6.00 to 7.00

GET /value?item= CNC(=O)c1ccccc1Nc1nc(Nc2cc3c(cc2OC)CCC(NCCOC)CC3)ncc1Cl (stereo not shown) [Example 1086] &field=pIC50 returns > 7.00

GET /value?item= CCN1C(=O)[C@@H](NC(=O)CN(C)C)CCc2c1ccc(Nc1ncc(Cl)c(N[C@H]3[C@@H](C(N)=O)[C@@H]4C=C[C@H]3C4)n1)c2OC (single isomer, unassigned) [Example 1355] &field=pIC50 returns > 7.00

GET /value?item= CNC(=O)CN1CCc2cc(Nc3ncc(Cl)c(N[C@@H]4CCCC[C@H]4NS(C)(=O)=O)n3)c(OC)cc2CC1 [Example 1112] &field=pIC50 returns > 7.00

GET /value?item= COCCN1CCc2ccc(Nc3ncc(Cl)c(Nc4c(F)cccc4OC4CCOCC4)n3)cc2CC1 [Example 1282] &field=pIC50 returns > 7.00

GET /value?item= C#CCNC(=O)c1ccccc1Nc1nc(Nc2ccc3c(c2)CCCC(=O)N3C)ncc1Cl [Example 1388] &field=pIC50 returns > 7.00
